Listing: pKd of selected binders
# TGT: U(702-793) (human, UniProt Q00839 702-793)
# Sequence (Q00839 702-793): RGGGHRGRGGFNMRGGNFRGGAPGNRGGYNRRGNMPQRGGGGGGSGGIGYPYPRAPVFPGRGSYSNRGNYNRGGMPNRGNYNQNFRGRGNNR
# ASSAY_OVERVIEW: fluorescence anisotropy
pKd: −log10 of the molar value.

{"BINDER": "Antisense Syncrip (structured_RNA) RNA: GAAGCUCACGCCGCUGGCAGCAAACCCGAUCCAGUUCCACUCGCCUCCGAGCGCGCUCCCGGUGCGCGCGCGCGCCCCCGCGUGACCCCCCCUUCCCUUCCCUUCCCUUCCCUCCCCUCCCUC", "pKd": 5.52}
{"BINDER": "Syncrip (structured_RNA) RNA: GAGGGAGGGGAGGGAAGGGAAGGGAAGGGAAGGGGGGGUCACGCGGGGGCGCGCGCGCGCACCGGGAGCGCGCUCGGAGGCGAGUGGAACUGGAUCGGGUUUGCUGCCAGCGGCGUGAGCUUC", "pKd": 6.74}
{"BINDER": "Antisense MTRNR2L6 (structured_RNA) RNA: GGCUACACCAUUAGGAUGUCCUGAUCCAACAUCGAGGUCGUAAACCCUAUUGUCAAUAUGGACUCUAGAAUAGGAUUGCGCUGUUAUCCCUAGGGUAACUUGUUCCGUUGAUCAAAUUAUUGGGUCAAUAUAUGUAUAG", "pKd": 5.92}
{"BINDER": "MTRNR2L6 (structured_RNA) RNA: GCUAUACAUAUAUUGACCCAAUAAUUUGAUCAACGGAACAAGUUACCCUAGGGAUAACAGCGCAAUCCUAUUCUAGAGUCCAUAUUGACAAUAGGGUUUACGACCUCGAUGUUGGAUCAGGACAUCCUAAUGGUGUAGC", "pKd": 5.96}
